Please go through the items and note down their Potency.
Molecular target: Cruzipain (Trypanosoma cruzi)
Experiment: qHTS Assay for Promiscuous and Specific Inhibitors of Cruzain (without detergent); note: nearly all actives have a fitted effect of over 40% in size; note: potency is the fitted concentration of half-maximal effect
Settings: purified cruzain, Z-FR-AMC fluorescence, no detergent
Experimental: Cruzain is a cysteine protease from the tropical parasite Trypanosoma cruzi. […] Cruzain was assayed by the use of fluorogenic coumarin-based substrate Z-FR-AMC: proteolytic cleavage releases AMC, whose fluorescence is measured at 360 nm excitation and 450 nm emission. […]
About 4,500 (2.2%) of roughly 200,000 compounds were called active. Roughly 12% stayed inconclusive and do not appear here. Shown is part of a subset that was picked to be rich in actives.

Provide each entry's Potency from the list below.
1. O=C(Nc1ccccc1)/C(=C/c1ccc([N+](=O)[O-])cc1)NC(=O)c1ccccc1
2. COc1ccc2[nH]c(C)c(CCN(Cc3cccs3)C(=S)Nc3ccccc3OC)c2c1
3. COc1ccc(C(=O)Nc2nc(-c3ccc(OC)cc3)c(-c3ccc([N+](=O)[O-])cc3)s2)cc1
4. CN(C)c1ccc(NC(=S)N(CCc2ccccc2)C2CC(=O)N(c3c(Cl)cccc3Cl)C2=O)cc1 (centres undefined)
5. CN(C)c1ccc(-n2cccc2/C=C2/SC(=Nc3ccc(F)cc3)NC2=O)cc1
6. Cc1cc(C(=O)N/N=C/c2ccc(O)c([N+](=O)[O-])c2)c(C)n1-c1ccc(F)cc1

a:
1: 10 µM (active); 2: 15.8 µM (active); 3: 7.94 µM (active); 4: 15.8 µM (active); 5: 10 µM (active); 6: 10 µM (active)

Provide each entry's Potency from the list below.
1. C=CCN1C(=O)C(O)(CC(=O)c2ccc(Cl)cc2)c2ccccc21 (centres undefined)
2. O=C(OCN1C(=O)c2ccccc2C1=O)/C(=C\c1ccco1)NC(=O)c1ccccc1
3. CCCc1nc(NCc2ccc3c(c2)OCO3)c2nnn(Cc3ccccc3Cl)c2n1
4. CC1(C)CC(=O)c2c(n(S(=O)(=O)c3ccccc3)c3ccc(NS(=O)(=O)c4ccccc4)cc23)C1
5. O=C(CN(c1ccc2c(c1)OCCO2)S(=O)(=O)c1ccccc1)Nc1ccc2c(c1)OCO2
6. CCCCOc1ccc(C(=O)N2CC(=O)Nc3ccc(Br)cc3C2c2ccc(F)cc2)cc1 (centres undefined)

a:
1: 12.6 µM (active); 2: 0.398 µM (active); 3: 7.94 µM (active); 4: 31.6 µM (active); 5: 12.6 µM (active); 6: 25.1 µM (active)

Provide each entry's Potency from the list below.
1. Cc1ccc2nc(/C(C#N)=C/c3ccc(-c4ccc(C(=O)OC(C)C)cc4)o3)[nH]c2c1
2. c1ccc(-c2nnc(SCc3nc4ccccc4[nH]3)o2)cc1
3. CCCCC(=O)Nc1nc(C)c(-c2csc(Nc3ccc(Cl)cc3)n2)s1
4. O=[N+]([O-])c1ccc(N2CCN(S(=O)(=O)c3ccccc3)CC2)cc1N1CCc2ccccc2C1
5. CCOC(=O)c1c(NC(=S)NC(=O)/C=C/c2cccs2)sc(C)c1C

a:
12.6 µM (active)
12.6 µM (active)
7.94 µM (active)
7.94 µM (active)
10 µM (active)

Provide each entry's Potency from the list below.
1. O=C(Nc1ccc2nc(SCC(=O)N3CCCc4ccccc43)sc2c1)c1ccc(Cl)cc1
2. CCOC(=O)c1c(C)n(S(=O)(=O)c2ccc(C)cc2C)c2ccc(NS(=O)(=O)c3ccc(C)cc3C)cc12

a:
["10 µM (active)", "1.58 µM (active)"]

----------
biological target: Cruzipain (Trypanosoma cruzi) (UniProt P25779); test: qHTS Assay for Promiscuous and Specific Inhibitors of Cruzain (without detergent); details: purified cruzain, Z-FR-AMC fluorescence, no detergent; note: nearly all actives have a fitted effect of over 40% in size; note: potency is the fitted concentration of half-maximal effect
Sequence (P25779 123-467 limits assumed): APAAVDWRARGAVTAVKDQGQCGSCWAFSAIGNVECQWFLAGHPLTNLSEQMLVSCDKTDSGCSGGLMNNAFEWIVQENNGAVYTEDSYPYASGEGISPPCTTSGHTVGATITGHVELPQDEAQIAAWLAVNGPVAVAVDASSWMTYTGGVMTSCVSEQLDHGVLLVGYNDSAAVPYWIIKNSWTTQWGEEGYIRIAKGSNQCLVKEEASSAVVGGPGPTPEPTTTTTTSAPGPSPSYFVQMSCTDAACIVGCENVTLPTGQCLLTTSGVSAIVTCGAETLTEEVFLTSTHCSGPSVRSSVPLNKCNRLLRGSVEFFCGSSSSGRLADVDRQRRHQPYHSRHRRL
Out of some 200,000 compounds screened, about 4,500 (2.2%) were called active. Not shown: some 12% with an inconclusive outcome. Many of the other results were omitted from the sample, so actives are more common in it than they were.
valueType: Potency

Cc1ccc(-c2nc3ccccc3[nH]2)cc1NC(=O)c1sc2ccccc2c1Cl; 7.94 µM (active)
c1ccc(-c2csc(N3CCc4ccccc4C3)n2)cc1; 25.1 µM (active)
Cc1noc(/C=C/c2ccco2)c1S(=O)(=O)N1CCC(C(=O)Nc2ccc(Cl)cn2)CC1; 6.31 µM (active)
COc1ccc(Br)cc1C(=O)NC(=S)Nc1cc(-c2nc3ccccc3[nH]2)ccc1C; 10 µM (active)

With those in mind, consider the next compound.
q: Look up Potency for this compound: CCS(=O)(=O)N1Cc2ccccc2CC1C(=O)Nc1nc2ccc(F)cc2s1 (stereo not given)
a: 12.6 µM (active)

----------
target: Cruzipain (Trypanosoma cruzi); assay: qHTS Assay for Promiscuous and Specific Inhibitors of Cruzain (without detergent); conditions: purified cruzain, Z-FR-AMC fluorescence, no detergent; note: nearly all actives have a fitted effect of over 40% in size;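 for max response, negative = inhibition: plate controls were enzyme without inhibitor for no effect and buffer without enzyme for full effect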
The whole screen tested about 200,000 compounds, of which about 4,500 (2.2%) were called active. Inconclusive results (about 12%) are left out. The entries come from a sample that favours actives as a whole.
Please go through the items and note down their max response, negative = inhibition.

Nc1c(C(=O)NCc2ccccc2)nnn1Cc1cccc(Cl)c1; -27.5% (inactive)

Provide each entry's max response, negative = inhibition from the list below.
1. CCOC(=O)c1cccc(NS(=O)(=O)c2cn(C)c(C)n2)c1
2. Cc1cc(C)c(NC(=O)CS(=O)CC(=O)Nc2cccnc2)c(C)c1 (stereo unspecified)
3. c1ccc(Nc2nc(-c3ccncc3)cs2)nc1
4. COc1ccc(NC(=O)Cn2nnc(C(=O)NCCc3ccc(OC)c(OC)c3)c2N)cc1

a:
["6.22% (inactive)", "-6.14% (inactive)", "2.93% (inactive)", "28.4% (inactive)"]

q: Look up max response, negative = inhibition for this compound: "CCOC(=O)c1cn(CC(=O)Nc2ccc(C(C)C)cc2)nn1"
a: 3.14% (inactive)

----------
target: Cruzipain (Trypanosoma cruzi); assay: qHTS Assay for Promiscuous and Specific Inhibitors of Cruzain (without detergent); conditions: purified cruzain, Z-FR-AMC fluorescence, no detergent; note: nearly all actives have a fitted effect of over 40% in size; note: potency is the fitted concentration of half-maximal effect
Screen size: about 200,000 compounds; about 4,500 (2.2%) were called active. Not shown: some 12% with an inconclusive outcome. The sample as a whole holds a higher share of actives than the screen did.
valueType: Potency

CC1(c2ccccc2)CC(C)(C)N(C(=O)c2cc([N+](=O)[O-])cc([N+](=O)[O-])c2)c2ccccc21 (stereo unspecified); 25.1 µM (active)
Cc1cc(-c2csc(N)n2)c(C)n1-c1ccccc1; 25.1 µM (active)
CCOc1ccc2nc(Cl)c(C3CC(c4ccccc4)=NN3C(=O)c3cccs3)cc2c1 (stereo unspecified); 7.94 µM (active)
O=C(Nc1sc2c(c1-c1nc3ccccc3[nH]1)CCCC2)C1CC1; 25.1 µM (active)
CC(Oc1ccc(-c2ccccc2)c(F)c1)c1ccn(S(=O)(=O)c2cccc3ccccc23)n1 (stereo unspecified); 12.6 µM (active)

Provide each entry's Potency from the list below.
1. CC(C)Oc1c(Br)cc(Br)cc1/C=N/NC(N)=S
2. O=C1Nc2ccccc2C12Nc1ccccc1S2 (stereo unspecified)
3. O=C(Nc1cc2c3c(c1)C1CCCC1CN3CC1CCCC21)c1ccc([N+](=O)[O-])cc1 (stereo unspecified)

a:
1: 0.158 µM (active); 2: 25.1 µM (active); 3: 25.1 µM (active)

----------
molecular target: Cruzipain (Trypanosoma cruzi); assay: qHTS Assay for Promiscuous and Specific Inhibitors of Cruzain (without detergent); details: purified cruzain, Z-FR-AMC fluorescence, no detergent; note: nearly all actives have a fitted effect of over 40% in size;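 for max response, negative = inhibition: plate controls were enzyme without inhibitor for no effect and buffer without enzyme for full effect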
In all, about 200,000 compounds went through this assay and about 4,500 (2.2%) were called active. Roughly 12% stayed inconclusive and do not appear here. For the sample, actives were picked, then their nearest neighbours and some compounds at random.
valueType: max response, negative = inhibition (%)
Give bare numbers, in %.

Field: example entries. Status: answers known.
COc1cccc(OCCn2c(-c3ccc(Br)cc3)nc3ccccc3c2=O)c1; -14.8
CCOC(=O)c1cc2sccc2n1Cc1ccc(C#N)cc1; -11.1
Cc1ccc(S(=O)(=O)NCCC(=O)Nc2ccc(C)c(Cl)c2)cc1C; -0.389

Provide each entry's max response, negative = inhibition from the list below.
1. O=C(NCc1ccco1)c1cc2sccc2n1Cc1ccc(F)cc1
2. COCCN(CCOC)S(=O)(=O)c1ccc(C(=O)Nc2nc3c(s2)CCc2ccccc2-3)cc1
3. Cc1ccc(-n2c(SCC(=O)c3ccccc3)nc3c([nH]c4ccccc43)c2=O)cc1
4. COc1cccc(CNC(=O)c2ccc3c(c2)sc2nc(-c4cccc(OC)c4)cn23)c1
5. CCC(=O)N1CCc2cc(S(=O)(=O)NC(C(=O)Nc3ccc(C(C)=O)cc3)C(C)C)ccc21 (stereo not given)
6. COc1ccc(C(=O)Nc2onc3c2CCCC3)cc1
7. CC(=O)Nc1ccc(NC(=O)c2cc3sccc3n2Cc2ccc(F)cc2)cc1

a:
-11.7
-1.58
-13.1
-4.99
-5.8
-6.11
23.5

----------
target: Cruzipain (Trypanosoma cruzi); experiment: qHTS Assay for Promiscuous and Specific Inhibitors of Cruzain (without detergent); details: purified cruzain, Z-FR-AMC fluorescence, no detergent; note: nearly all actives have a fitted effect of over 40% in size;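 for max response, negative = inhibition: plate controls were enzyme without inhibitor for no effect and buffer without enzyme for full effect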
The campaign covered roughly 200,000 compounds. About 4,500 (2.2%) were called active. Inconclusive results (about 12%) are left out. The sample holds actives, similar compounds and a random draw of the others, so the mix is not that of the screen.
Please go through the items and note down their max response, negative = inhibition.
One number for each entry, in %.

Field: example entries. Status: answers known.
COc1cc2c(cc1OC)C(Nc1ccc(S(N)(=O)=O)cc1)=NC(C)(C)C2; 5.29
Cc1cccc(NC(=O)Cn2c(=O)n(CCC(C)C)c(=O)c3cccnc32)c1; -11.5
O=C(COC(=O)CCc1c[nH]c(=O)[nH]1)Nc1ccccc1Cl; -19.9

Provide each entry's max response, negative = inhibition from the list below.
1. COc1ccc(CCC(=O)NCCc2csc(-c3ccc(Cl)cc3)n2)cc1
2. Cc1nc2nc(SCC(=O)NCc3ccco3)nn2c(C)c1Cc1ccccc1
3. O=S(=O)(c1ccc(Cl)cc1)c1nnn2c1nc(NC1CCCC1)c1sccc12
4. COc1cc2c(cc1O)C(SC)=NC(C)(C)C2
5. Cc1ccc(-c2cc(C(=O)Oc3ccccc3Cl)no2)cc1C
6. CCC(=O)N1CCc2cc(Br)cc(S(=O)(=O)Nc3ccc(C)cc3C)c21

a:
1. 28.2
2. -3.94
3. 1.8
4. -12.8
5. 0.973
6. -1.34

q: # get_value(readout= max response, negative = inhibition, system= Cruzipain (Trypanosoma cruzi)) for Cc1ccc2oc3c(c(=O)c2c1)C(c1ccc(O)cc1)N(Cc1ccc2c(c1)OCO2)C3=O (stereo not given)
a: 3.18
